For each entry below, report its inhibition value.
system-name: Virion infectivity factor (Human immunodeficiency virus type 1 group M subtype B (isolate BH10)) + Virion infectivity factor (Human immunodeficiency virus type 1 group M subtype B (isolate BRU/LAI)) + Virion infectivity factor (Human immunodeficiency virus type 1 group M subtype B (isolate PCV12)) + Virion infectivity factor (Human immunodeficiency virus type 1 group M subtype B (isolate HXB2)) + DNA dC->dU-editing enzyme APOBEC-3G (Homo sapiens) (UniProt P69720+P69721+P69722+P69723+Q9HC16)
experiment: inhibitors of Vif binding to APOBEC3G peptide, primary screen, biochemical, TR-FRET, GST-Vif 1-94, biotin-A3G peptide, dose response retest (AID 1117319);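 also: Vif residues 1-94 fused to GST binding biotinylated APOBEC3G peptide 110-148; 0% = full assay without inhibitor and 100% = GST in place of GST-Vif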
experimental-setup: active compounds read high
Hit rate of the full screen: of about 260,000 compounds, about 1,500 (0.58%) were called active. About 5% were inconclusive and are not listed. Only a sample is shown. Measured potencies and affinities stand elsewhere.

Please review the following examples before continuing.
COc1ccc(N2CCN(C(=O)c3ccc(C)cc3Cl)CC2)cc1 = 6.52% (inactive)
O=S(=O)(c1ccc2c(c1)CCCN2)N1CCCCC1 = 8.06% (inactive)

I need inhibition for every entry listed below, if you could help.
1. Cc1[nH]c2ccccc2c1Cc1nnc(SCC(N)=O)o1
2. CC(=O)c1cccc(OCc2cc(C(=O)N(C)Cc3nccs3)no2)c1
3. COc1ccc(N2CCN(C(=O)COC(=O)c3c(-c4ccccc4)noc3C)CC2)cc1
4. C=CCN(C(=O)c1ccccn1)C(C(=O)NCc1ccccc1)c1ccccc1F (stereo unspecified)
5. Cc1cccc(Nc2nc(-c3cccs3)cs2)n1

["9.95% (inactive)", "-3% (inactive)", "-5.58% (inactive)", "6.79% (inactive)", "8.51% (inactive)"]

I need inhibition for every entry listed below, if you could help.
1. Cc1cc(O)c(C(C)C)cc1N=Cc1ccccc1[N+](=O)[O-]
2. CN(C)C(CNC(=O)CCc1c[nH]c2ccccc12)c1ccccc1 (stereo unspecified)
3. Cc1ccc(NC(=O)CNC(=O)c2ccc(C(C)(C)C)cc2)cc1S(=O)(=O)N1CCOCC1
4. COc1cccc(C=Nc2ccccc2C#N)c1O
5. Cc1onc(-c2ccccc2Cl)c1C(=O)O/N=C(\N)c1ccccc1
6. CCOc1ccccc1NCN1C(=O)c2ccccc2C1=O
7. CCOC(=O)c1cnc(SCC(=O)OCC(=O)N(CC)C2CCS(=O)(=O)C2)nc1N (stereo unspecified)

1. -2.95% (inactive)
2. 0.02% (inactive)
3. 0.79% (inactive)
4. 14.7% (inactive)
5. -3.35% (inactive)
6. -5.06% (inactive)
7. 4.12% (inactive)

I need inhibition for every entry listed below, if you could help.
1. O=C(NCCCCNC(=O)C(F)(F)F)C(F)(F)F
2. COc1ccc(N2CCN(C(=O)COc3ccc4ccccc4c3)CC2)cc1

0.85% (inactive)
2.55% (inactive)

I need inhibition for every entry listed below, if you could help.
1. COC(=O)/C=C1\SC(=Nc2ccc(OC)cc2)NC1=O
2. Cc1ccc(S(=O)(=O)N2CCCc3ccccc32)cc1
3. O=C(O)c1ccc(-n2nc(C(F)(F)F)c3c2CCCC3)cc1
4. O=C(CN1CCc2ccccc21)NN1CC(=O)N(c2ccccc2)CC1=O
5. Cc1ccc(CSc2nc3ccncc3n2CC(=O)Nc2cc(C)cc(C)c2)cc1
6. Cc1nc2sc(C(c3cccs3)N3CCC(C(N)=O)CC3)c(O)n2n1 (stereo unspecified)

["-0.91% (inactive)", "3.67% (inactive)", "0.77% (inactive)", "1.28% (inactive)", "-48.6% (inactive)", "4.3% (inactive)"]

I need inhibition for every entry listed below, if you could help.
1. O=C(COc1ccccc1)N1CCN(c2ccccc2)CC1
2. O=C1C2CCCN2C(=O)N1CCCN1CCN(c2ccc([N+](=O)[O-])cc2)CC1 (stereo unspecified)
3. COc1ccc(S(=O)(=O)N2CCN(C(=O)c3c(-c4ccccc4)noc3C)CC2)cc1
4. CCCCOc1ccc(C(=O)NCC(=O)OCCCOC(=O)CNC(=O)c2ccc(OCCCC)cc2)cc1
5. Cc1onc(-c2ccccc2Cl)c1C(=O)N1CCN(c2ccccc2)CC1

10.3% (inactive)
-0.31% (inactive)
0.45% (inactive)
-9.89% (inactive)
-3.16% (inactive)

I need inhibition for every entry listed below, if you could help.
1. COc1ccc(C(=O)N2CCN(c3cccc(Cl)c3)CC2)cc1
2. O=C(O)c1ccc2c(c1)CCCN2
3. O=C(O)c1ccc(S(=O)(=O)N2CCCCCCC2)cc1

1. -2.36% (inactive)
2. -1.03% (inactive)
3. 1.86% (inactive)

I need inhibition for every entry listed below, if you could help.
1. COc1ccc(N=C2NC(=O)/C(=C/C=C/c3ccccc3)S2)cc1
2. COc1ccccc1/C=C/C=N/NC(=O)Cc1cccs1
3. CCCCCCOc1ccc(N2C(=O)CC(N(CCc3ccc(S(N)(=O)=O)cc3)C(C)=O)C2=O)cc1 (stereo unspecified)
4. CN1/C(=C\C(=O)COC(=O)c2ccccc2O)C(C)(C)c2ccccc21

1. -3.43% (inactive)
2. -10.6% (inactive)
3. -1.36% (inactive)
4. -8.33% (inactive)

I need inhibition for every entry listed below, if you could help.
1. O=Cc1cccc(OCc2cccc3ccccc23)c1
2. CC(=O)Nc1ccn(-c2ccccc2)n1
3. O=C(NCCCCCCCCCNC(=O)C(F)(F)F)C(F)(F)F
4. O=C1NC(=Nc2ccc3ccccc3c2)S/C1=C/c1ccco1

1. -9.48% (inactive)
2. 15.9% (inactive)
3. 3.63% (inactive)
4. -0.8% (inactive)

----------
system-name: Virion infectivity factor (Human immunodeficiency virus type 1 group M subtype B (isolate BH10)) + Virion infectivity factor (Human immunodeficiency virus type 1 group M subtype B (isolate BRU/LAI)) + Virion infectivity factor (Human immunodeficiency virus type 1 group M subtype B (isolate PCV12)) + Virion infectivity factor (Human immunodeficiency virus type 1 group M subtype B (isolate HXB2)) + DNA dC->dU-editing enzyme APOBEC-3G (Homo sapiens) (UniProt P69720+P69721+P69722+P69723+Q9HC16)
experiment: inhibitors of Vif binding to APOBEC3G peptide, primary screen, biochemical, TR-FRET, GST-Vif 1-94, biotin-A3G peptide, dose response retest (AID 1117319);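 also: Vif residues 1-94 fused to GST binding biotinylated APOBEC3G peptide 110-148; 0% = full assay without inhibitor and 100% = GST in place of GST-Vif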
experimental-setup: active compounds read high
In all, about 260,000 compounds went through this assay and about 1,500 (0.58%) were called active. Roughly 5% stayed inconclusive and do not appear here. A selection follows. Entries with a potency or affinity are not part of this list.
observation-type: inhibition (%)
Give bare numbers, in %.

Please review the following examples before continuing.
Cc1cc(-c2n[nH]c(=S)n2/N=C/c2ccc(C)o2)n[nH]1 = 27.9
S=c1[nH]nc(-c2cccnc2)n1/N=C/C=C/c1ccccc1 = 32.9
COc1ccccc1NC(=O)c1coc(=O)c(Br)c1 = 13.2
S=c1[nH]nc(-c2cccnc2)n1/N=C/c1ccco1 = 3.51

I need inhibition for every entry listed below, if you could help.
1. O=C(NCCc1ccc(F)cc1)c1coc(=O)c(Br)c1
2. CC(/C=N/n1c(-c2ccc(Cl)cc2)n[nH]c1=S)=C\c1ccco1

1. -6.83
2. 27.8

I need inhibition for every entry listed below, if you could help.
1. C(=C\c1ccccc1)/C=N/n1cnnc1
2. COc1ccc(NS(=O)(=O)c2cc(Cl)ccc2Cl)cc1S(=O)(=O)N1CCCCC1
3. CC1CCN(c2ccccc2NC(=S)NC(=O)C(C)(C)C)CC1
4. O=C(CS(=O)(=O)c1ccc(F)cc1)N1CCN(c2ccccc2)CC1
5. COc1ccc(CN2C(=O)C(CC(=O)NCCCCc3ccccc3)CC(C(=O)N(C(C)C)C(C)C)=C2C)cc1 (stereo unspecified)

17.7
10.3
-4.59
-1.09
6.93

----------
system-name: Virion infectivity factor (Human immunodeficiency virus type 1 group M subtype B (isolate BH10)) + Virion infectivity factor (Human immunodeficiency virus type 1 group M subtype B (isolate BRU/LAI)) + Virion infectivity factor (Human immunodeficiency virus type 1 group M subtype B (isolate PCV12)) + Virion infectivity factor (Human immunodeficiency virus type 1 group M subtype B (isolate HXB2)) + DNA dC->dU-editing enzyme APOBEC-3G (Homo sapiens) (UniProt P69720+P69721+P69722+P69723+Q9HC16)
experiment: inhibitors of Vif binding to APOBEC3G peptide, primary screen, biochemical, TR-FRET, GST-Vif 1-94, biotin-A3G peptide, dose response retest (AID 1117319);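 also: Vif residues 1-94 fused to GST binding biotinylated APOBEC3G peptide 110-148; 0% = full assay without inhibitor and 100% = GST in place of GST-Vif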
experimental-setup: active compounds read high
Hit rate of the full screen: of about 260,000 compounds, about 1,500 (0.58%) were called active. Roughly 5% stayed inconclusive and do not appear here. The list is a sample of the results. Entries with a potency or affinity are not part of this list.
observation-type: inhibition (%)
Answers are plain numbers, in %.

Please review the following examples before continuing.
CCOC(=O)C1=C(O)c2ccccc2C(=O)/C1=C\c1ccc(CC)cc1 = 31.5
CCOC(=O)C1=C(Cc2ccc(OC)cc2)C(=O)c2ccccc2C1=O = 24.3
COc1ccc(-c2nc3ccccc3n2OC(C)C(=O)O)cc1 (stereo unspecified) = -3.4
COc1cccc(OC)c1C(=O)Nc1ccccc1NC(=O)c1c(OC)cccc1OC = -6.67
COCCNC(=S)N/N=C(\C)CCc1ccc2c(c1)OCO2 = 3.32

Lab note: next compound to report on.
Look up inhibition: CCCCCOc1ccc(C2NC(=O)NC2=O)cc1 (stereo unspecified) 0.64

The measurements presented in this section are drawn from PubChem BioAssay AID1117319.
